Task for the reader: assign each of the following compounds its reported MRT inf.
- assay: Pharmacokinetics in ICR mice after intravenous and intragastric administration
- Format: in vivo
- stated conditions: male, ICR, mouse, plasma, po, 5 mg/kg, PO 5 mg/kg, ICR mice, Mean; read-out: MRT(0-∞)
# unit: h | format: bare number

Field MRT inf (entry COc1cc(N(C)C)ccc1-c1nc2c(n1C(C)C)[C@@]1(C(=O)Nc3cc(Cl)ccc31)N(c1cc(Cl)ccc1C)C2=O [Example S-23] ) reads 2.26

So, COc1ncc(-c2nc3c(n2C(C)C)[C@@]2(C(=O)Nc4cc(Cl)ccc42)N(c2cc(Cl)ccc2C)C3=O)c(OC)n1 [Example S-2] ? Its MRT inf was 3.12

The compound listed as COc1cc(OC)c(-c2nc3c(n2C(C)C)[C@@]2(C(=O)Nc4cc(Cl)ccc42)N(c2cc(Cl)ccc2C)C3=O)cn1 [Example S-11] shows MRT inf equal to 3.27

====

- assay: Pharmacokinetics in ICR mice after intravenous and intragastric administration
- Format: in vivo
- stated conditions: male, ICR, mouse, plasma, po, 5 mg/kg, ICR mice, PO 5 mg/kg, mean of 3 animals
Label scheme for AUC(0-inf): lower than 9000 ng·h/mL is NOT MET, 9000 ng·h/mL and above is MET.

Kindly determine if AUC(0-inf) recorded for COc1cc(C2CC2)ncc1-c1nc2c(n1C(C)C)[C@@]1(C(=O)Nc3cc(Cl)ccc31)N(c1cc(Cl)ccc1C)C2=O [Example S-103] is above or exactly 9000 ng·h/mL.
MET

Given COc1cc(OC)c(-c2nc3c(n2C(C)C)[C@@]2(C(=O)Nc4cc(Cl)ccc42)N(c2cccc(Cl)c2)C3=O)cn1 [Example S-115] , state whether its AUC(0-inf) is at least 9000 ng·h/mL.
NOT MET

Textbook exercise: given the entry COc1cc(OC(C)C)ncc1-c1nc2c(n1C(C)C)[C@@]1(C(=O)Nc3cc(Cl)ccc31)N(c1cc(Cl)cnc1C)C2=O [Example S-137] , state whether its AUC(0-inf) is greater than or equal to 9000 ng·h/mL.
MET

Is AUC(0-inf) for COc1ccc(-c2nc3c(n2C(C)C)[C@@]2(C(=O)Nc4cc(Cl)ccc42)N(c2cc(Cl)cnc2C)C3=O)c(OC)c1 [Example S-61] at or above 9000 ng·h/mL?
NOT MET

====

- assay: Pharmacokinetics in ICR mice after intravenous and intragastric administration
- Assay type: in vivo
- stated conditions: male, ICR, mouse, plasma, iv, 2 mg/kg, ICR mice, IV 2 mg/kg, individual animal; read-out: MRT(0-∞)
MRT inf vs 2 h: less than gives class 1; not less than gives class 0.

Would you kindly verify if MRT inf of COc1cc(OC(C)C)ncc1-c1nc2c(n1C(C)C)[C@@]1(C(=O)Nc3cc(Cl)ccc31)N(c1cc(Cl)ccc1C)C2=O is strictly less than 2 h?
class 0

Is MRT inf strictly under 2 h for the entry COc1ncc(-c2nc3c(n2C(C)C)[C@@]2(C(=O)Nc4cc(Cl)ccc42)N(c2cc(F)cc(Cl)c2)C3=O)c(OC)n1 ?
class 1

Threshold test, MRT inf < 2 h: COc1cc(OC)c(-c2nc3c(n2C(C)C)[C@@]2(C(=O)Nc4cc(Cl)ccc42)N(c2cc(Cl)ccc2F)C3=O)cn1
class 1

Dear colleague, could you confirm whether MRT inf of COc1cc(C2CC2)ncc1-c1nc2c(n1C(C)C)[C@@]1(C(=O)Nc3cc(Cl)ccc31)N(c1cc(Cl)ccc1C)C2=O falls below 2 h? Thanks.
class 0

Strictly below 2 h in MRT inf? CCOc1cc(OC)c(-c2nc3c(n2C(C)C)[C@@]2(C(=O)Nc4cc(Cl)ccc42)N(c2cc(Cl)ccc2F)C3=O)cn1
class 1

A record lists COc1cc(OC)c(-c2nc3c(n2C(C)C)[C@@]2(C(=O)Nc4cc(Cl)ccc42)N(c2cccc(Cl)c2)C3=O)cn1 . Is its MRT inf below 2 h?
class 1

Is the reported MRT inf for COc1nc(C2CC2)ncc1-c1nc2c(n1C(C)C)[C@@]1(C(=O)Nc3cc(Cl)ccc31)N(c1cc(Cl)ccc1C)C2=O strictly below 2 h?
class 0

Threshold test, MRT inf < 2 h: CCOc1cc(OC)c(-c2nc3c(n2C(C)C)[C@@]2(C(=O)Nc4cc(Cl)ccc42)N(c2cc(Cl)ccc2C)C3=O)cn1
class 1

Dear colleague, could you confirm whether MRT inf of COc1ccc(-c2nc3c(n2C(C)C)[C@@]2(C(=O)Nc4cc(Cl)ccc42)N(c2cc(Cl)cnc2C)C3=O)c(OC)c1 falls below 2 h? Thanks.
class 1

A record lists COc1cc(OC)c(-c2nc3c(n2C(C)C)[C@@]2(C(=O)Nc4cc(Cl)ccc42)N(c2cc(Cl)cnc2C)C3=O)cn1 . Is its MRT inf below 2 h?
class 1

Consider the compound COc1ncc(-c2nc3c(n2C(C)C)[C@@]2(C(=O)Nc4cc(Cl)ccc42)N(c2cc(Cl)ccc2F)C3=O)c(OC)n1 . Is its MRT inf strictly less than 2 h?
class 0

====

Please go through the items and note down their pIC50.
Scale for pIC50: -log10 of concentration given in mol/L; no unit attached.

Measured pIC50 for this entry COc1cc(C(F)(F)F)ncc1-c1nc2c(n1C(C)C)[C@@]1(C(=O)Nc3cc(Cl)ccc31)N(c1cc(Cl)cnc1C)C2=O on MDM2 (Homo sapiens, UniProt Q00987): 9.11

Here COc1cc(C2CC2)ccc1-c1nc2c(n1C(C)C)[C@]1(C(=O)Nc3cc(Cl)ccc31)N(c1cc(Cl)ccc1C)C2=O was tested on MDM2 (Homo sapiens, UniProt Q00987), and its pIC50 came to 6.85

The compound COc1cc(C2CC2)ccc1-c1nc2c(n1C(C)C)[C@]1(C(=O)Nc3cc(Cl)ccc31)N(c1cc(Cl)cnc1C)C2=O , tested on MDM2 (Homo sapiens, UniProt Q00987), showed pIC50 of 6.13

pIC50 value, target or system MDM2 (Homo sapiens, UniProt Q00987), for CCOc1ccc(-c2nc3c(n2C(C)C)[C@@]2(C(=O)Nc4cc(Cl)ccc42)N(c2cc(Cl)ccc2F)C3=O)c(OC)c1 : 8.33

Response field pIC50 (MDM2 (Homo sapiens, UniProt Q00987)) for item COc1ccc(-c2nc3c(n2C(C)C)[C@]2(C(=O)Nc4cc(Cl)ccc42)N(c2cc(Cl)cnc2C)C3=O)c(OC)c1 : 6.87

Tested system MDM2 (Homo sapiens, UniProt Q00987); pIC50 recorded for COc1cccc(F)c1-c1nc2c(n1C(C)C)[C@]1(C(=O)Nc3cc(Cl)ccc31)N(c1cc(Cl)ccc1C)C2=O was 6.37

The reported MDM2 (Homo sapiens, UniProt Q00987) pIC50 of COc1nc(OCCF)ncc1-c1nc2c(n1C(C)C)[C@]1(C(=O)Nc3cc(Cl)ccc31)N(c1cccc(Cl)c1)C2=O is 5.05

The recorded pIC50 with MDM2 (Homo sapiens, UniProt Q00987) for COc1nc(OCCF)ncc1-c1nc2c(n1C(C)C)[C@@]1(C(=O)Nc3cc(Cl)ccc31)N(c1cc(Cl)cnc1C)C2=O was 8.73

Field pIC50 (MDM2 (Homo sapiens, UniProt Q00987)), entry COc1cccc(OC)c1-c1nc2c(n1C(C)C)[C@@]1(C(=O)Nc3cc(Cl)ccc31)N(c1cc(Cl)ccc1C)C2=O : 8.72

Param item: COc1cc(Cl)cc(N2C(=O)c3nc(-c4cnc(OC)nc4OC)n(C(C)C)c3[C@]23C(=O)Nc2cc(Cl)ccc23)c1 ; param system: MDM2 (Homo sapiens, UniProt Q00987); output pIC50: 5.84

// pIC50 (MDM2 (Homo sapiens, UniProt Q00987)) for COc1cc(C(C)(C)C)ccc1-c1nc2c(n1C(C)C)[C@]1(C(=O)Nc3cc(Cl)ccc31)N(c1cc(Cl)ccc1C)C2=O = 5.70

The compound CCc1ccc(OC)c(-c2nc3c(n2C(C)C)[C@]2(C(=O)Nc4cc(Cl)ccc42)N(c2cccc(Cl)c2)C3=O)c1 , tested on MDM2 (Homo sapiens, UniProt Q00987), showed pIC50 of 5.95

Query COc1nc(OCCF)ncc1-c1nc2c(n1C(C)C)[C@@]1(C(=O)Nc3cc(Cl)ccc31)N(c1cc(Cl)ccc1C)C2=O on MDM2 (Homo sapiens, UniProt Q00987); pIC50 returned: 8.97

Item CCOc1ccc(-c2nc3c(n2C(C)C)[C@@]2(C(=O)Nc4cc(Cl)ccc42)N(c2cc(Cl)ccc2C)C3=O)c(OC)n1 was tested on MDM2 (Homo sapiens, UniProt Q00987); the reported pIC50 is 8.26

Tested system MDM2 (Homo sapiens, UniProt Q00987); pIC50 recorded for COc1cc(C#N)ccc1-c1nc2c(n1C(C)C)[C@]1(C(=O)Nc3cc(Cl)ccc31)N(c1cc(Cl)ccc1C)C2=O was 6.43
